# credit: ChEMBL document CHEMBL3991601

Calls of active or inactive are those of the source.
Hi! I'm sharing some Kd results obtained with Focal adhesion kinase 1 (Homo sapiens, UniProt Q05397).
Sequence (Q05397 whole entry): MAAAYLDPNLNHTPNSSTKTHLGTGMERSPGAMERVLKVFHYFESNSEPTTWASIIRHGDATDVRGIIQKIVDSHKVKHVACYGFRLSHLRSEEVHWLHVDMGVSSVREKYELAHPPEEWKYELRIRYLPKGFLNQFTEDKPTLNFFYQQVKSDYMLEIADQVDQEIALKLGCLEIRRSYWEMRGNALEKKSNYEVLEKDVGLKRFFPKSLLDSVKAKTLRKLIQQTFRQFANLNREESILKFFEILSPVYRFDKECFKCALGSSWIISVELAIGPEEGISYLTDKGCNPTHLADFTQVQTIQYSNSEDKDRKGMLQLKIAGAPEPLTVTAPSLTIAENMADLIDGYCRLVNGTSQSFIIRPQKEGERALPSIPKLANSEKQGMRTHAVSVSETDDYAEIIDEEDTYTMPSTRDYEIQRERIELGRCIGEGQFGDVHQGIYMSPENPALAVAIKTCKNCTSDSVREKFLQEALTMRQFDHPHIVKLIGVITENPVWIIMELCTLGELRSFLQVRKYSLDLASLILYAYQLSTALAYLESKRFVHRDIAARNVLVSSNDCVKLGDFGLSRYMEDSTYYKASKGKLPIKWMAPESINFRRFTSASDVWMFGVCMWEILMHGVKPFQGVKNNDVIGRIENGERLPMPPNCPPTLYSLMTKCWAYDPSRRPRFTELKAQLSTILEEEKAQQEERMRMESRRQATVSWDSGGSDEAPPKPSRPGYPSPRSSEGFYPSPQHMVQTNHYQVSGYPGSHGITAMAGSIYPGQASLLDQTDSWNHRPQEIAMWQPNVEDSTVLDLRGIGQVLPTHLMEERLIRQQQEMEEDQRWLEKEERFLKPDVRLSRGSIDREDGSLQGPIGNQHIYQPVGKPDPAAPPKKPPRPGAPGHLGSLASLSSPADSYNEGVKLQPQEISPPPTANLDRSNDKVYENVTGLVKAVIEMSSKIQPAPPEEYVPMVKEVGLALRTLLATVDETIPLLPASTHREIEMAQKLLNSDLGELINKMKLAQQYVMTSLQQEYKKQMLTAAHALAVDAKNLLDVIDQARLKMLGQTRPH

COMPOUND	ASSAY_SYSTEM	Kd
C[C@H]1CNCCCN1S(=O)(=O)c1cccc2cncc(F)c12	Focal adhesion kinase 1 (Homo sapiens, UniProt Q05397)	> 30 µM (inactive)
Cc1cc(C(=O)NOCCO)c(Nc2ccc(I)cc2F)n(C)c1=O [AZD-8330]	Focal adhesion kinase 1 (Homo sapiens, UniProt Q05397)	> 30 µM (inactive)
CO[C@H]1C[C@@H]2CC[C@@H](C)[C@@](O)(O2)C(=O)C(=O)N2CCCC[C@H]2C(=O)O[C@H]([C@H](C)C[C@@H]2CC[C@@H](OC(=O)C(C)(CO)CO)[C@H](OC)C2)CC(=O)[C@H](C)/C=C(\C)[C@@H](O)[C@@H](OC)C(=O)[C@H](C)C[C@H](C)/C=C/C=C/C=C/1C [TEMSIROLIMUS]	Focal adhesion kinase 1 (Homo sapiens, UniProt Q05397)	> 30 µM (inactive)
N#CC1(c2ccc(NC(=O)c3cccnc3NCc3ccncc3)cc2)CCCC1 [RIVOCERANIB]	Focal adhesion kinase 1 (Homo sapiens, UniProt Q05397)	> 30 µM (inactive)
Cn1ncc(Cl)c1-c1cc(C(=O)N[C@H](CN)Cc2ccc(F)c(F)c2)oc1Cl [UPROSERTIB]	Focal adhesion kinase 1 (Homo sapiens, UniProt Q05397)	> 30 µM (inactive)
O=C1NC(=O)[C@@H](c2cn3c4c(cccc24)CCC3)[C@@H]1c1c[nH]c2ccccc12 [TIVANTINIB]	Focal adhesion kinase 1 (Homo sapiens, UniProt Q05397)	> 30 µM (inactive)
C[C@@H](Oc1cc(C(=O)Nc2ccc(C(=O)N3CCN(C)CC3)cc2)nnc1N)c1c(Cl)ccc(F)c1Cl	Focal adhesion kinase 1 (Homo sapiens, UniProt Q05397)	> 30 µM (inactive)
Cn1cc(-c2cnc3ccc4ccc(CS(=O)(=O)NCc5ccccn5)cc4c(=O)c3c2)cn1 [MK-8033]	Focal adhesion kinase 1 (Homo sapiens, UniProt Q05397)	> 30 µM (inactive)
CN(C[C@@H]1COCCO1)S(=O)(=O)Nc1ccc2ccc3ncc(-c4cnn(C)c4)cc3c(=O)c2c1 [MK-2461]	Focal adhesion kinase 1 (Homo sapiens, UniProt Q05397)	> 30 µM (inactive)
COCC(=O)NC/C=C/c1ccc2ncnc(Nc3ccc(Oc4ccc(C)nc4)c(C)c3)c2c1 [CP-724714]	Focal adhesion kinase 1 (Homo sapiens, UniProt Q05397)	> 30 µM (inactive)
COc1c(OCCCN2CCOCC2)ccc2c1N=C(NC(=O)c1cnc(N)nc1)N1CCN=C21 [COPANLISIB]	Focal adhesion kinase 1 (Homo sapiens, UniProt Q05397)	> 30 µM (inactive)
Cc1cccc(-c2nn3c(c2-c2ccnc4ccc(C(N)=O)cc24)CCC3)n1 [GALUNISERTIB]	Focal adhesion kinase 1 (Homo sapiens, UniProt Q05397)	> 30 µM (inactive)
C=CC(=O)N1CCC[C@H](n2c(=O)n(-c3ccc(Oc4ccccc4)cc3)c3c(N)ncnc32)C1	Focal adhesion kinase 1 (Homo sapiens, UniProt Q05397)	> 30 µM (inactive)
FC(F)(F)c1ccc(/C=C/c2nc(COc3ccc(CCCCn4ccnn4)cc3)co2)cc1 [MUBRITINIB]	Focal adhesion kinase 1 (Homo sapiens, UniProt Q05397)	> 30 µM (inactive)
Cc1cc(Nc2ncnc3ccc(NC4=NC(C)(C)CO4)cc23)ccc1Oc1ccn2ncnc2c1 [TUCATINIB]	Focal adhesion kinase 1 (Homo sapiens, UniProt Q05397)	> 30 µM (inactive)

----------
# ASSAY_SYSTEM: Pyridoxal kinase (Homo sapiens, UniProt O00764); further: in the data inactive means no Kd found up to 30 µM
# Sequence (O00764 whole entry): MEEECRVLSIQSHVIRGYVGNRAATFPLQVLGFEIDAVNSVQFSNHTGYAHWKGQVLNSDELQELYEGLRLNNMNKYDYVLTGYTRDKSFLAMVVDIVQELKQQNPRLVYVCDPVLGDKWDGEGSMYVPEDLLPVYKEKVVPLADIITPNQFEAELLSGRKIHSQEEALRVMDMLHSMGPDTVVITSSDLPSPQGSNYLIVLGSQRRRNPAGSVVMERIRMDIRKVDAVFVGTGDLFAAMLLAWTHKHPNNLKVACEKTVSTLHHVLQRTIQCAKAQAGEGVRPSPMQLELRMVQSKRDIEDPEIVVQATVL
Activity calls are given as the source filed them.
Outcomes: 1.0 for active, 0.0 for inactive

COMPOUND	CLASS_ASSIGNMENT
O=C(Nc1nc2cccc(-c3ccc(CN4CCS(=O)(=O)CC4)cc3)n2n1)C1CC1 [FILGOTINIB]	0.0
C[C@@H](Oc1cc(-n2cnc3ccc(CN4CCN(C)CC4)cc32)sc1C(N)=O)c1ccccc1C(F)(F)F [GSK-461364]	0.0
CNC(=O)c1nn(C)c2c1C(C)(C)Cc1cnc(Nc3ccc(N4CCN(C)CC4)cc3)nc1-2 [MILCICLIB]	0.0
CNC(=O)c1ccccc1Sc1ccc2c(/C=C/c3ccccn3)n[nH]c2c1 [AXITINIB]	0.0
Cc1nc2cc(-c3nn(C(C)C)c4ncnc(N)c34)ccc2o1	0.0
C=CC(=O)N1CCC[C@H](n2c(=O)n(-c3ccc(Oc4ccccc4)cc3)c3c(N)ncnc32)C1	0.0
Cc1cnc(NC(=O)Nc2cc(Br)c(C)cc2OC[C@@H]2CNCCO2)cn1 [RABUSERTIB]	0.0
CNC(=O)c1cccc2cc(Oc3ccnc4cc(OCC5(N)CC5)c(OC)cc34)ccc12 [LUCITANIB]	1.0
Nc1ncnc2c1c(-c1cccc(OCc3ccccc3)c1)cn2[C@H]1C[C@@H](CN2CCC2)C1 [AEW-541]	0.0
C#Cc1cccc(Nc2ncnc3cc(OC)c(OCCCCCCC(=O)NO)cc23)c1 [CUDC-101]	0.0
COCC(=O)NC/C=C/c1ccc2ncnc(Nc3ccc(Oc4ccc(C)nc4)c(C)c3)c2c1 [CP-724714]	0.0
CCS(=O)(=O)c1cccc(-c2cc(C(=O)NC3CCN(C)CC3)c(C)c3[nH]c4ncc(C)cc4c23)c1 [TAK-901]	0.0
O=C(NOCCO)c1cc(CN2OCCCC2=O)c(F)c(F)c1Nc1ccc(I)cc1F [RO-4987655]	0.0
Cn1cc(C2=C(c3cn(C4CCN(Cc5ccccn5)CC4)c4ccccc34)C(=O)NC2=O)c2ccccc21 [ENZASTAURIN]	0.0

----------
# ASSAY_SYSTEM: Mitogen-activated protein kinase 10 (Homo sapiens); further: in the data inactive means no Kd found up to 30 µM
# Sequence (P53779 whole entry): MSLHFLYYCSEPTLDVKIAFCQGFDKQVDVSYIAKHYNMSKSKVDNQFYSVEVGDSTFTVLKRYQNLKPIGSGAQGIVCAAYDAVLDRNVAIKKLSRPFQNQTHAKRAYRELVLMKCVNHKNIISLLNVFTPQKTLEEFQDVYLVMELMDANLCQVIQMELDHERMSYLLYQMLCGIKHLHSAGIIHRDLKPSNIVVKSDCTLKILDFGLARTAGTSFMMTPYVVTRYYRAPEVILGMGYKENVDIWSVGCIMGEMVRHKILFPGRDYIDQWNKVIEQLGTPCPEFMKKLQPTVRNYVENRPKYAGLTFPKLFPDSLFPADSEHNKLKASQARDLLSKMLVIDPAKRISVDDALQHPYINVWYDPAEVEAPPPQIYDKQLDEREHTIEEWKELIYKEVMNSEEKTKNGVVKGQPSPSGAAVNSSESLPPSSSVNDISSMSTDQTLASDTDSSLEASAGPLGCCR
Activity calls are given as the source filed them.
Outcomes: true for active, false for inactive

COMPOUND	ASSAY_SYSTEM	CLASS_ASSIGNMENT
Cc1cccc(-c2nn3c(c2-c2ccnc4ccc(C(N)=O)cc24)CCC3)n1 [GALUNISERTIB]	Mitogen-activated protein kinase 10 (Homo sapiens)	false
Cc1nc(NC(=O)N2CCC[C@H]2C(N)=O)sc1-c1ccnc(C(C)(C)C(F)(F)F)c1 [ALPELISIB]	Mitogen-activated protein kinase 10 (Homo sapiens)	false
O=C(Nc1c[nH]nc1-c1nc2cc(CN3CCOCC3)ccc2[nH]1)NC1CC1 [AT-9283]	Mitogen-activated protein kinase 10 (Homo sapiens)	true
C=CC(=O)N1CCC[C@H](n2c(=O)n(-c3ccc(Oc4ccccc4)cc3)c3c(N)ncnc32)C1	Mitogen-activated protein kinase 10 (Homo sapiens)	false
CCNC(=O)C#Cc1ccc2c(c1)NC(=O)/C2=C(\Nc1ccc(CN(C)C)cc1)c1ccccc1	Mitogen-activated protein kinase 10 (Homo sapiens)	false
CCn1cc(-c2ccnc3[nH]c(-c4cccc(CN(C)C)c4)cc23)c(-c2ccc(NC(=O)N(C)C)cc2)n1 [GSK-1070916]	Mitogen-activated protein kinase 10 (Homo sapiens)	false
Cc1cc(C(=O)NOCCO)c(Nc2ccc(I)cc2F)n(C)c1=O [AZD-8330]	Mitogen-activated protein kinase 10 (Homo sapiens)	false
CC(C)(C)c1nc(-c2cccc(NS(=O)(=O)c3c(F)cccc3F)c2F)c(-c2ccnc(N)n2)s1 [DABRAFENIB]	Mitogen-activated protein kinase 10 (Homo sapiens)	false
FC(F)(F)c1ccc(/C=C/c2nc(COc3ccc(CCCCn4ccnn4)cc3)co2)cc1 [MUBRITINIB]	Mitogen-activated protein kinase 10 (Homo sapiens)	false
COCc1c(-c2ccc(NC(=O)Nc3cc(C(F)(F)F)ccc3F)c(F)c2)c2c(N)ncnn2c1CN1CCOCC1	Mitogen-activated protein kinase 10 (Homo sapiens)	false
COCC(=O)NC/C=C/c1ccc2ncnc(Nc3ccc(Oc4ccc(C)nc4)c(C)c3)c2c1 [CP-724714]	Mitogen-activated protein kinase 10 (Homo sapiens)	false
NC(=O)Nc1cc(-c2cccc(F)c2)sc1C(=O)N[C@H]1CCCNC1 [AZD-7762]	Mitogen-activated protein kinase 10 (Homo sapiens)	false
O=c1[nH]ccc2cc(OC3CCNCC3)ccc12 [SAR-407899 FREE BASE]	Mitogen-activated protein kinase 10 (Homo sapiens)	false
CC(=O)c1cnc2ccc(-c3cc(Cl)c(O)c(Cl)c3)nc2c1N[C@H]1CC[C@H](CN(C)C)CC1	Mitogen-activated protein kinase 10 (Homo sapiens)	true
CN1CCN(CCOc2cc(OC3CCOCC3)c3c(Nc4c(Cl)ccc5c4OCO5)ncnc3c2)CC1 [SARACATINIB]	Mitogen-activated protein kinase 10 (Homo sapiens)	false
O=C(Nc1nc2cccc(-c3ccc(CN4CCS(=O)(=O)CC4)cc3)n2n1)C1CC1 [FILGOTINIB]	Mitogen-activated protein kinase 10 (Homo sapiens)	true
Cn1cc(-c2cnn3c(N)c(Br)c([C@@H]4CCCNC4)nc23)cn1 [SCH-900776]	Mitogen-activated protein kinase 10 (Homo sapiens)	false
COc1cc(Nc2ncc3c(n2)-c2ccc(Cl)cc2C(c2c(F)cccc2OC)=NC3)ccc1C(=O)O [ALISERTIB]	Mitogen-activated protein kinase 10 (Homo sapiens)	false
O=C(Cc1ccc(-c2ccc(OCCN3CCOCC3)cc2)cn1)NCc1ccccc1 [TIRBANIBULIN]	Mitogen-activated protein kinase 10 (Homo sapiens)	false
